System: 786-0
Assay: NCI tumour cell line growth inhibition, 48 h
Active and inactive are the calls of the source. Rule as the data show it: active = GI50 up to about 1.1 µM and inactive = higher.
Possible outcomes: 1 (yes) (active), 0 (no) (inactive)

# compound, category
records = [
    ("CCCOP1(=O)C=C(C)C(Cl)=C(C)C1 (stereo not given)", "0 (no)"),
    ("C[C@]12CC[C@H](O)CC1CCC[C@@H]2O (stereo not given in full)", "0 (no)"),
    ("Cc1nn(C(=O)c2ccc(Cl)cc2)c2c1C(c1ccc([N+](=O)[O-])cc1)SC(=N)N2 (stereo not given)", "0 (no)"),
    ("CNc1cc(Cl)ccc1C(=O)N1CCC[C@H]1CO", "0 (no)"),
    ("c1ccc(C(c2ccccc2)c2ccccn2)cc1", "0 (no)"),
    ("Oc1ccc2c(c1)c1c(n2CCN2CCOCC2)-c2ccccc2CC1", "0 (no)"),
    ("NC(=O)c1nc[nH]c1/N=N/SCC(N)C(=O)O (stereo not given)", "0 (no)"),
    ("C[C@@H]1C[C@H]2CC[C@H](O2)[C@H](C)C(=O)O[C@@H](C)C[C@@H]2CC[C@@H](O2)[C@@H](C)C(=O)O[C@H](C)C[C@H]2CC[C@H](O2)[C@H](C)C(=O)O[C@@H](C)C[C@@H]2CC[C@@H](O2)[C@@H](C)C(=O)O1", "1 (yes)"),
    ("C=CC(=O)NCCC(=O)OCn1cc(F)c(=O)[nH]c1=O", "0 (no)"),
    ("NS(=O)(=O)c1ccc(CNc2nc(-c3cccs3)nc3ccc(I)cc23)cc1", "0 (no)"),
]

* * *

Measured GI50, listed per entry for reference.
Test system: PC-3
Test: NCI tumour cell line growth inhibition, 48 h
Active and inactive are the calls of the source. Cut-off read from the data, not from the text of the source: active = GI50 up to about 1.1 µM and inactive = higher.

# molecule, GI50
rows = [
    ("CC[C@@]1(O)C(=O)OCc2c1cc1n(c2=O)Cc2c-1nc1ccccc1c2/C=N\\NC(=O)C(N)Cc1c[nH]c2ccccc12 (stereo not given in full)", "1.29 µM (inactive)"),
    ("COc1cc2c(cc1OCCCN1CCOCC1)N=C[C@@H]1CCCN1C2=O", "18.6 µM (inactive)"),
    ("CCOC(=O)C(CS)NC(=O)CCCCCCCC(=O)O (stereo not given)", "> 100 µM (inactive)"),
    ("COC12c3ccccc3-c3ccccc3C1[C@@H](C(=O)O)[C@H]2C(=O)O (stereo not given in full)", "> 10 µM (inactive)"),
    ("CN(C)CCCNC(=O)N/N=C/c1ccc(O)cc1", "> 100 µM (inactive)"),
    ("CCCCC(/C=C\\COC1CCCCO1)=C/C(=O)OCC (stereo not given)", "44.9 µM (inactive)"),
    ("COc1nc2ncc([C@@H](OC(C)=O)[C@@H](COC(C)=O)OC(C)=O)nc2c(=O)n1C", "> 100 µM (inactive)"),
    ("CC1(C)OC2OC(COC(=O)C=[N+]=[N-])C3OC(C)(C)OC3C2O1 (stereo not given)", "> 100 µM (inactive)"),
    ("O=C(CCCn1ccnc1[N+](=O)[O-])NCCn1cnc([N+](=O)[O-])n1", "> 100 µM (inactive)"),
    ("CNc1ccc([S+]([O-])Nc2ccc(OC)cc2)cc1 (stereo not given)", "> 100 µM (inactive)"),
    ("COc1ccc(/C=N/n2c(Cc3ccc(Cl)cc3)n[nH]c2=O)c(OC)c1", "28.8 µM (inactive)"),
    ("O=[N+]([O-])/C(Cl)=C(\\Sc1ccccc1)C(Cl)=C(Cl)Cl", "2.01 µM (inactive)"),
    ("O=C(/C=C/c1ccc2c(c1)OCO2)CC(=O)/C=C/c1ccc2c(c1)OCO2", "86.3 µM (inactive)"),
    ("Nc1ccccc1-n1c2c(c3ccccc3c1=O)C(=O)c1ccccc1-2", "16.1 µM (inactive)"),
    ("COc1cc(/N=C(\\N)N=C(N)N)c2ncccc2c1", "> 100 µM (inactive)"),
    ("COc1cc(O)c(C(=O)/C=C/c2ccccc2)c(OC)c1", "6.1 µM (inactive)"),
    ("Cc1nn(C(=O)c2ccc(Cl)cc2)c2c1C(c1ccc([N+](=O)[O-])cc1)SC(=N)N2 (stereo not given)", "> 10 µM (inactive)"),
    ("CC(=O)OCCN(C1=NCCN1)/[N+](C=c1ccc(=C=[N-])cc1)=C/c1ccc(C#N)cc1", "> 100 µM (inactive)"),
    ("CC(C)(C)OC(=O)N/C(C=O)=C\\C1CCCCC1", "17.3 µM (inactive)"),
    ("CCCCCc1cc2cc3c(c(O)c2c(=O)[nH]1)C1(CCC3)C(=O)c2c(O)ccc(O)c2C1=O", "> 100 µM (inactive)"),
]
